Tested on: Saccharomyces cerevisiae
test_protocol: protein stability index of tFT-peptide fusion (C-terminal peptide) (PSI (0-1 scale)); higher = more stable (slower turnover)
run_parameters: genetic background: das1 deletion; temperature: 30 C
readout_name: protein stability index
Simply state the number, no unit and no words.

Some solved entries appear below for comparison.
- ERPIVASTSPIA [TPH3 C-terminal 12 aa]: 0.712
- ELKINNDGRLVN [SEC66 C-terminal 12 aa]: 0.714
- RLGASNSSNNDA [SLY1 C-terminal 12 aa]: 0.702
- IMSTASAQFVGN [YIR018C-A C-terminal 12 aa]: 0.687
- NLMVADDKVWRV [MCM3 C-terminal 12 aa]: 0.696

Qu. API: value(readout=protein stability index, system=Saccharomyces cerevisiae) for record SDDDDYDEVANQ [UBC8 C-terminal 12 aa]
Ans. 0.689

Qu. // next record NVYRLTLMIFRL [YMR013W-A C-terminal 12 aa]
Ans. 0.428

Qu. // next record AFKGHDNSDDKA [RIB2 C-terminal 12 aa]
Ans. 0.706

Qu. // next record GFKGFSNKRVKG [MSS18 C-terminal 12 aa]
Ans. 0.689

Qu. // next record IQYYEEILRRGL [SPP1 C-terminal 12 aa]
Ans. 0.683

Qu. // next record KVLACYEEIDDY [UBC11 C-terminal 12 aa]
Ans. 0.679

----------
Tested on: Saccharomyces cerevisiae
test_protocol: protein stability index of tFT-peptide fusion (C-terminal peptide) (PSI (0-1 scale)); higher = more stable (slower turnover)
run_parameters: genetic background: doa10 deletion; temperature: 30 C
Is protein stability index at least 0.2? Then class 1. If not, class 0.

Check out these entries, answers already filled in.
- PLPSRAPVQFLL: class 0
- FCVLLFFFPLII: class 1
- GCVMSVCSLAVS: class 1

Qu. In plain terms: is recorded protein stability index at least 0.2 for `VLICFSVFSWVV` ?
Ans. class 0

Qu. // next record `LSRHLILFIVIR`
Ans. class 1

Qu. // next record `GGHGGRRRKGVG`
Ans. class 1

Qu. // next record `CLLGMKSRTILV`
Ans. class 1

Qu. // next record `YCAAVCFWGLYC`
Ans. class 0

Qu. // next record `RGYSAIWGCKMN`
Ans. class 0

Qu. // next record `FNMLFVVRLLYM`
Ans. class 1

Qu. // next record `FLFFWRASLFFW`
Ans. class 0

Qu. // next record `WGIPRRPTLFIP`
Ans. class 1

Qu. // next record `VWFGGFVCSVLG`
Ans. class 1

Qu. // next record `LSFFICSFFFVL`
Ans. class 1

----------
System: Saccharomyces cerevisiae
test_protocol: protein stability index of tFT-peptide fusion (C-terminal peptide) (PSI (0-1 scale)); higher = more stable (slower turnover)
run_parameters: genetic background: cdc34-1; temperature: 37 C
readout_name: protein stability index
Simply state the number, no unit and no words.

Some solved entries appear below for comparison.
- VFWLLVAVLRYW: 0.224
- HCNRLIFWYKCT: 0.508
- ALLVLTVSYVFS: 0.045
- CLASCRHRTYLC: 0.652
- SVFRFLFLALLV: 0.2
- FFICCPLLVVCS: 0.0277

Qu. API: value(readout=protein stability index, system=Saccharomyces cerevisiae) for record `LSFLSLIFSICY`
Ans. 0.432
